Measured pIC50 values are reported for all entries that follow.
# Target of assay: D(2) dopamine receptor (Rattus norvegicus)
# Sequence (P61169 whole entry): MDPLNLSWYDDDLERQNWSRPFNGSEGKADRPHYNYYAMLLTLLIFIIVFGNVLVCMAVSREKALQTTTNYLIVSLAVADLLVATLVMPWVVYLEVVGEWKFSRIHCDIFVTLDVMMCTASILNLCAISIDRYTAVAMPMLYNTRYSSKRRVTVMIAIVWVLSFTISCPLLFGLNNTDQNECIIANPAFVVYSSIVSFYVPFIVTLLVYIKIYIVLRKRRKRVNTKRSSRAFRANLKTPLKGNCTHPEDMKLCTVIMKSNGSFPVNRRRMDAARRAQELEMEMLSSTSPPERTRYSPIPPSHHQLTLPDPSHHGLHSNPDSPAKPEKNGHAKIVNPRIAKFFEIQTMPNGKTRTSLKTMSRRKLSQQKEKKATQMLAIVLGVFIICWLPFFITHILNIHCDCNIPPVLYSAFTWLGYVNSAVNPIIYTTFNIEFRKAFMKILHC
# Method summary: Binding affinity against Dopamine receptor D2 using [3H]spiperone as radioligand
Reminder that pIC50 means the negative base-10 logarithm of the concentration expressed in mol/L.

Check out these entries, answers already filled in.
CCCN1CCCC2c3cc(O)ccc3CCC21 (racemic; 32) :: 5.17
CCCCN1CCC[C@H](c2cccc(O)c2)C1 :: 5.57

IN: Value lookup for pIC50; key = CCN1CCCC2c3cccc(O)c3CCC21 (racemic)
OUT: 6.99

IN: Further, for CCCN1CCCC(c2ccc(O)cc2)C1 (centres undefined) ?
OUT: 4.89
